Test system: Acinetobacter baumannii ATCC 19606
Format: cell-based
Details: ATCC 19606
Where a SMILES comes first, the peptide text is derived from it. Bridges are numbered along the chain shown (N, C = ends). [ ]: non-standard residue; d: D form. The star is where a group is joined. Heptanoyl(6-Me) = CC(C)CCCCC(=O)*; Octanoyl = CCCCCCCC(=O)*; Dab = NCC[C@H](N)C(=O)O; Nva = CCC[C@H](N)C(=O)O; X1 = CCCCCC(=O)CC(=O)*

# molecule, MIC A. baumannii ATCC 19606 [µg/mL]
rows = [
    ("CCCCCCCC(=O)N[C@@H](CCN)C(=O)N[C@H](C(=O)N[C@@H](CCN)C(=O)N[C@H]1CCNC(=O)[C@H]([C@@H](C)O)NC(=O)[C@H](CCN)NC(=O)[C@H](CCN)NC(=O)[C@H](CCC)NC(=O)[C@@H](CC(C)C)NC(=O)[C@H](CCN)NC1=O)[C@@H](C)O [Compound 81] (Octanoyl-[Dab]T[Dab][Dab][Dab][dL][Nva][Dab][Dab]T; lactam 4-C)", 1),
    ("CCCCCC(=O)CC(=O)N[C@@H](CCN)C(=O)N[C@H](C(=O)N[C@@H](CCN)C(=O)N[C@H]1CCNC(=O)[C@H]([C@@H](C)O)NC(=O)[C@H](CCN)NC(=O)[C@H](CCN)NC(=O)[C@H](CC(C)C)NC(=O)[C@@H](Cc2ccccc2)NC(=O)[C@H](CCN)NC1=O)[C@@H](C)O [Compound 5] (X1-[Dab]T[Dab][Dab][Dab][dF]L[Dab][Dab]T; lactam 4-C)", 2),
    ("CC(C)CCCCC(=O)N[C@@H](CCN)C(=O)N[C@H](C(=O)N[C@H](CO)C(=O)N[C@H]1CCNC(=O)[C@H]([C@@H](C)O)NC(=O)[C@H](CCN)NC(=O)[C@H](CCN)NC(=O)[C@H]([C@@H](C)O)NC(=O)[C@@H](CC(C)C)NC(=O)[C@H](CCN)NC1=O)[C@@H](C)O [Compound 59] ({Heptanoyl(6-Me)}-[Dab]T[dS][Dab][Dab][dL]T[Dab][Dab]T; lactam 4-C)", 0.12),
]

###

Tested on: Klebsiella pneumoniae ATCC BAA-2146 (NDM-1)
Experiment: Antibacterial activity, MIC by dish double dilution method
Type: cell-based
Details: ATCC BAA-2146
Where a SMILES comes first, the peptide text is derived from it. Bridges are numbered along the chain shown (N, C = ends). [ ]: non-standard residue; d: D form. The star is where a group is joined. dBpa = N[C@H](Cc1ccc(C(=O)c2ccccc2)cc1)C(=O)O; Heptanoyl(6-Me) = CC(C)CCCCC(=O)*; X2 = CC[C@H](C)CCCCC(=O)*; dDab = NCC[C@@H](N)C(=O)O; Octanoyl = CCCCCCCC(=O)*; Dab = NCC[C@H](N)C(=O)O
value-kind: MIC K. pneumoniae ATCC BAA-2146 (NDM-1) (µg/mL)

# compound, unit-info, reported-result
rows = [
    ("CCCCCCCC(=O)N[C@@H](CCN)C(=O)N[C@H](C(=O)N[C@@H](CCN)C(=O)N[C@H]1CCNC(=O)[C@H]([C@@H](C)O)NC(=O)[C@H](CCN)NC(=O)[C@H](CCN)NC(=O)[C@H](CC(C)C)NC(=O)[C@@H](Cc2ccccc2)NC(=O)[C@H](CCN)NC1=O)[C@@H](C)O [Compound 44] (Octanoyl-[Dab]T[Dab][Dab][Dab][dF]L[Dab][Dab]T; lactam 4-C)", "µg/mL", 1),
    ("CC[C@H](C)CCCCC(=O)N[C@@H](CCN)C(=O)N[C@H](C(=O)N[C@@H](CCN)C(=O)N[C@H]1CCNC(=O)[C@H]([C@@H](C)O)NC(=O)[C@H](CCN)NC(=O)[C@H](CCN)NC(=O)[C@H](CC(C)C)NC(=O)[C@@H](Cc2ccc(C(=O)c3ccccc3)cc2)NC(=O)[C@H](CCN)NC1=O)[C@@H](C)O [Compound 29] (X2-[Dab]T[Dab][Dab][Dab][dBpa]L[Dab][Dab]T; lactam 4-C)", "µg/mL", 2),
    ("CCCCCCCC(=O)N[C@@H](CCN)C(=O)N[C@H](C(=O)N[C@@H](CCN)C(=O)N[C@H]1CCNC(=O)[C@H](CC(C)C)NC(=O)[C@H](CCN)NC(=O)[C@H](CCN)NC(=O)[C@H](CC(C)C)NC(=O)[C@@H](Cc2ccccc2)NC(=O)[C@H](CCN)NC1=O)[C@@H](C)O [Compound 129] (Octanoyl-[Dab]T[Dab][Dab][Dab][dF]L[Dab][Dab]L; lactam 4-C)", "µg/mL", 4),
    ("CC[C@H](C)CCCCC(=O)N[C@@H](CCN)C(=O)N[C@H](C(=O)N[C@H](CCN)C(=O)N[C@H]1CCNC(=O)[C@H]([C@@H](C)O)NC(=O)[C@H](CCN)NC(=O)[C@H](CCN)NC(=O)[C@H]([C@@H](C)O)NC(=O)[C@@H](Cc2ccccc2)NC(=O)[C@H](CCN)NC1=O)[C@@H](C)O [Compound 143] (X2-[Dab]T[dDab][Dab][Dab][dF]T[Dab][Dab]T; lactam 4-C)", "µg/mL", 1),
    ("CC(C)CCCCC(=O)N[C@@H](CCN)C(=O)N[C@H](C(=O)N[C@H](CO)C(=O)N[C@H]1CCNC(=O)[C@H]([C@@H](C)O)NC(=O)[C@H](CCN)NC(=O)[C@H](CCN)NC(=O)[C@H]([C@@H](C)O)NC(=O)[C@@H](CC(C)C)NC(=O)[C@H](CCN)NC1=O)[C@@H](C)O [Compound 59] ({Heptanoyl(6-Me)}-[Dab]T[dS][Dab][Dab][dL]T[Dab][Dab]T; lactam 4-C)", "µg/mL", 0.5),
]
